experimentalSetup: in ethanol, 333.15 K
reportedProperty: solubility (mole fraction)
Field format: numeric only.

Form field solubility (mole fraction), entry CC(=O)c1ccc(O)cc1O : 0.257

---

experimentalSetup: in methyl acetate, 298.15 K
reportedProperty: solubility (mole fraction)
Field format: numeric only.

Form field solubility (mole fraction), entry CC(=O)c1ccc(O)cc1O : 0.126

---

experimentalSetup: in methyl acetate, 318.15 K
reportedProperty: solubility (mole fraction)
Field format: numeric only.

Form field solubility (mole fraction), entry CC(=O)c1ccc(O)cc1O : 0.182

---

experimentalSetup: in n-butanol, 293.15 K
reportedProperty: solubility (mole fraction)
Field format: numeric only.

Form field solubility (mole fraction), entry CC(=O)c1ccc(O)cc1O : 0.104
